Kd for assorted binders
target: T1, biotinylated cynomolgus monkey VWF cysteine knot (CK) domain construct (cynomolgus monkey, biotinylated in vitro (BirA) on the biotinylation tag; one N-glycan)
T1 construct: Expressed in HEK293 EBNA cells; disulfide-linked homodimer; also called cyno VWF CK; cyno VWF CK domain; not shown: in vitro biotinylation tag, HRV-3C site and 3 VWF residues before the CK domain
T1 chain: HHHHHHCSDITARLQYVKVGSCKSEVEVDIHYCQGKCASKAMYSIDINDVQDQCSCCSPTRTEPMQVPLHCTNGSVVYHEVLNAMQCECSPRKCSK
test: SPR, scFv captured via anti-SV5, CK domain injected, pH 7.4, apparent Kd;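 note: scFvs from crude yeast supernatants printed on an amine-coupled anti-SV5 lawn, Kd computed as koff over kon, likely overestimating affinity because the CK construct is dimeric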
Please make sure the unit comes right after the number.

Reference set, count: 2
{"columns": ["binder", "Kd"],
 "data": [
  ["9621_Lib8_scFv (scFv, VH-linker-VL; not shown: C-terminal 3xFLAG and SV5 tags) scFv: EVQLVESGGGLVQPGRSLRLSCAASGFSFSMYAMHWVRQAPGKGLEWVSAISPSGDATDYADSVEGRFTISRDNAKNSLYLQMNSLRAEDTAVYYCARGMQDYGHYYYYYMDVWGKGTTVTVSSSGGSTITSYNVYYTKLSSSGTDIQMTQSPSSLSASVGDRVTITCRASQDISTSLAWYQQKPGKAPKLLIYGASSLETGVPSRFSGSGSGTDFTLTISSLQPEDVATYYCQQGYIAPRTFGGGTKVEIK", "0.137 nM"],
  ["9301_Lib8_scFv (scFv, VH-linker-VL; not shown: C-terminal 3xFLAG and SV5 tags) scFv: EVQLVESGGGLVQPGRSLRLSCAASGFNFHNYDMHWVRQAPGKGLEWVSAISGSGYTADYADSVEGRFTISRDNAKNSLYLQMNSLRAEDTAVYYCAKSHSSGWSSAFDIWGQGTMVTVSSSGGSTITSYNVYYTKLSSSGTDIQMTQSPSSLSASVGDRVTITCRASQTIGYWLAWYQQKPGKAPKLLIYDASVPESGVPSRFSGSGSGTDFTLTISSLQPEDVATYYCQQTLSSPWTFGGGTKVEIK", "0.684 nM"]
]}

Then this binder:
# input Query (binder): 1675_Lib1_scFv (scFv, VH-linker-VL; not shown: C-terminal 3xFLAG and SV5 tags) scFv: QVQLVQSGAEVKKPGASVKVSCKVSGVTLTSSAISWVRQAPGKGLEWMGGITPIFGTPIYAQKFQGRVTMTEDTSTDTAYMELSSLKSEDTAVYYCATDYGYPFWAFDIWGQGTMVTVSSSGGSTITSYNVYYTKLSSSGTDIQMTQSPSSVSASVGDRVTITCRASQGIYSALAWYQQKPGKAPKLLIYESSKRPSGVPSRFSGSGSGTDFTLTISSLQPEDFANYYCEQYASSPPTFGGGTKVEIK ; field requested: Kd
# output 0.052 nM
